So I've got a bunch of binders here, and I need their NCI-H292 Growth IC50 values.
# target_under_test: human EGFR on cells (A431, NCI-H292, NCI-H322, NCI-H441) (human, UniProt P00533 25-1210)
# assay_comment: cell-based or functional assay
Answers are plain numbers, in nM.

- binder: "P54AR4-73 (designed binder, not shown: small tags and cut ends, also called P54AR4-37) LPAPKNLVVSEVTEDSLRLSWTWPYADLDSFLIQYQESEKVGEAINLTVPGSERSYDLTGLKPGTEYTVSIYGVHNVYKDTNMRGLPLSAEFTT"
  measure_unit: "nM"
  NCI-H292 Growth IC50: 83
- binder: "P54AR4-83 (designed binder, not shown: small tags and cut ends) LPAPKNLVVSEVTEDSLRLSWDDPWAFYESFLIQYQESEKVGEAINLTVPGSERSYDLTGLKPGTEYTVSIYGVHNVYKDTNMRGLPLSAEFTT"
  measure_unit: "nM"
  NCI-H292 Growth IC50: 5.9
- binder: "P53A1R5-17 (designed binder, not shown: small tags and cut ends) LPAPKNLVVSEVTEDSLRLSWADPHGFYDSFLIQYQESEKVGEAINLTVPGSERSYDLTGLKPGTEYTVSIYGVHNVYKDTNMRGLPLSAEFTT"
  measure_unit: "nM"
  NCI-H292 Growth IC50: 86

Turning now to a further binder:
Request: Supply reported NCI-H292 Growth IC50 belonging to this binder: P54CR4-31 (designed binder, not shown: small tags and cut ends) LPAPKNLVVSEVTEDSLRLSWTAPDAAFDSFLIQYQESEKVGEAINLTVPGSERSYDLTGLKPGTEYTVSIYGVLGSYVFEHDVMLPLSAEFTT
Result: 1150
